# subject-of-test: hROMK (hKir1.1) (Homo sapiens, UniProt P48048)
# Construct: expressed in transfected cells
# measurement-description: Thallium Flux Assay (ROMK channel functional thallium flux, FLIPR-Tetra)
# Assay type: cell-based
# reported-conditions: HEK293 cells stably expressing hROMK (hKir1.1); 30 min compound incubation
Quick list: pIC50 per entry.
Scale: pIC50 equals -log10([C]), with [C] in mol/L.

Please review the following examples before continuing.
| compound | pIC50 |
| --- | --- |
| CC1=C(N2CCC3(CC4CCC(C3)N4C[C@H](O)c3ccc(-n4cnnn4)nn3)C2=O)COC1=O (stereo partly drawn) [Example 52] | 8.00 |
| CCC1CC2(CCN(C[C@H](O)c3cnc(-n4cnnn4)cn3)CC2)C(=O)N1C1=CC(=O)OC1 (mixture of isomers) [Example 220] | 7.40 |

// switching to the query compound
[ask] Query pIC50 for CC1(C)CC2(CCN(C[C@H](O)c3cnc(-n4cnnn4)cn3)CC2)C(=O)N1C1=CC(=O)OC1 [Example 164]
[reply] 7.40

----------
# subject-of-test: hROMK (hKir1.1) (Homo sapiens)
# Sequence (P48048 1-391): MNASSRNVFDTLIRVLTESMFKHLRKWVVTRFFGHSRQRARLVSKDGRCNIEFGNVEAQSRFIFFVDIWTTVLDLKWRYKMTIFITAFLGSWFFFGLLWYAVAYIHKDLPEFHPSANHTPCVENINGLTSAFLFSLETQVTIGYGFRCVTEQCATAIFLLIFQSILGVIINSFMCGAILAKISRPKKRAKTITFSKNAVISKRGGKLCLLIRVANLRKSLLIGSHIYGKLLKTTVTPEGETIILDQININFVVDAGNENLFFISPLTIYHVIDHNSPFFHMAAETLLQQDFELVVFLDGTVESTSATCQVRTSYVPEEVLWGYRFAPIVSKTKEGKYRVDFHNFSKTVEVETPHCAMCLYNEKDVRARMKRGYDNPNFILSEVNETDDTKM
# measurement-description: Thallium Flux Assay (ROMK channel functional thallium flux, FLIPR-Tetra)
# reported-conditions: HEK293 cells stably expressing hROMK (hKir1.1); 30 min compound incubation
readout: log10 IC50 (log10 of the value in nM)
Values below are the log10 of the recorded IC50, with nM as the unit.

Please review the following examples before continuing.
| compound | readout | measured |
| --- | --- | --- |
| CC1=C(N2CCC3(CCN(C[C@H](O)c4cc(C)c(-n5cnnn5)nn4)CC3)C2=O)COC1=O [Example 128] | log10 IC50 | 1.90 |
| CC1=CN(C2=C(C)C(=O)OC2)C(=O)C12CCN(C[C@H](O)c1ccc(-n3cnnn3)nn1)CC2 [Example 166] | log10 IC50 | 2.00 |
| C[C@@H]1CC2(CCN(C[C@@H](O)c3cnc(-n4cnnn4)cn3)CC2)C(=O)N1C1=CC(=O)OC1 [Example 80] | log10 IC50 | 2.11 |
| CC1=C(N2CCC3(CCN(C[C@@H](O)c4ccc(-n5cnnn5)nn4)CC3F)C2=O)COC1=O (single isomer, unassigned) [Example 197] | log10 IC50 | 1.48 |
| CCC1CC2(CCN(C[C@H](O)c3cnc(-n4cnnn4)cn3)CC2)C(=O)N1C1=CC(=O)OC1 (mixture of isomers) [Example 221] | log10 IC50 | 1.48 |
| CC1=C(N2CCC3(CC4CN(C)CC(C3)N4C[C@H](O)c3ccc(-n4cnnn4)nc3)C2=O)COC1=O (stereo partly drawn) [Example 112] | log10 IC50 | 2.61 |

[ask] Query log10 IC50 for COc1cc(-n2cnnn2)ccc1[C@@H](O)CN1CCC2(CC1)CCN(C1=CC(=O)OC1)C2=O [Example 15]
[reply] 1.00

[ask] Query log10 IC50 for CC1=C(N2CC(O)C3(CC4CCC(C3)N4C[C@@H](O)c3ccc(-n4cnnn4)nc3)C2=O)COC1=O (single isomer, unassigned) [Example 105]
[reply] 2.11

[ask] Query log10 IC50 for C[C@H]1CC2(CCN(CCc3ncc(-n4cnnn4)nc3C3CC3)CC2)C(=O)N1C1=CC(=O)OC1 [Example 270]
[reply] 1.00

[ask] Query log10 IC50 for CC1=C(N2CCC3(CCN(C[C@@H](O)c4ccc(-n5cnnn5)cn4)CC3)C2=O)COC1=O [Example 23]
[reply] 1.30

[ask] Query log10 IC50 for CC1=C(N2CCC3(CCN(CCc4cc(C)c(-n5cnnn5)nn4)CC3)C2=O)COC1=O [Example 237]
[reply] 1.30

[ask] Query log10 IC50 for C[C@H]1CC2(CCN(C[C@@H](O)c3ccc(-n4cnnn4)nc3)CC2)C(=O)N1C1=CC(=O)OC1 [Example 82]
[reply] 1.00

[ask] Query log10 IC50 for CC1=C(N2CCC3(CCN(C[C@H](O)c4ccc(-n5cnnn5)nc4C)CC3F)C2=O)COC1=O (single isomer, unassigned) [Example 118]
[reply] 2.26

[ask] Query log10 IC50 for CC1=C(N2CCC3(CCN(CCc4cnc(-n5cnnn5)cn4)CC3)C2=O)COC1=O [Example 234]
[reply] 1.00

[ask] Query log10 IC50 for COC1CN(C2=C(C)C(=O)OC2)C(=O)C12CC1CCC(C2)N1C[C@H](O)c1ccc(-n2cnnn2)nc1 (single isomer, unassigned) [Example 108]
[reply] 1.60

[ask] Query log10 IC50 for CC1=C(N2CCC3(CCN(C[C@@H](O)c4cc(-n5cnnn5)ccn4)CC3)C2=O)COC1=O [Example 71]
[reply] 1.85

[ask] Query log10 IC50 for COc1cc(-n2cnnn2)ncc1[C@H](O)CN1CCC2(CC1)CCN(C1=C(C)C(=O)OC1)C2=O [Example 94]
[reply] 1.30

[ask] Query log10 IC50 for CC1=C(N2C=CC3(CCN([C@H](C)Cc4nnc(-n5cnnn5)cc4C)CC3)C2=O)COC1=O (single isomer, unassigned) [Example 275]
[reply] 0.60

----------
# subject-of-test: UniProt P48048
# measurement-description: Thallium Flux Assay (ROMK channel functional thallium flux, FLIPR-Tetra)
# reported-conditions: HEK293 cells stably expressing hROMK (hKir1.1); 30 min compound incubation
Quick list: pIC50 per entry.
Scale: pIC50 equals -log10([C]), with [C] in mol/L.

| molecule | subject-of-test | measured |
| --- | --- | --- |
| CC1=C(N2CCC3(CC4CCC(C3)N4C[C@H](O)c3cnc(-n4cnnn4)nc3)C2=O)COC1=O (some centres unmarked) | UniProt P48048 | 7.52 |
| CC1=C(N2CCC3(CCN(CCc4cnc(-n5cnnn5)cc4CO)CC3)C2=O)COC1=O | UniProt P48048 | 7.10 |
| CC1=C(N2C(=O)C3(CCN(C[C@H](O)c4ccc(-n5cnnn5)nn4)CC3)CC2C)COC1=O (single isomer, unassigned) [Example 125] | UniProt P48048 | 7.22 |
| CC1=C(N2CCC3(CCN(C[C@@H](O)c4ncc(-n5cnnn5)cc4C)CC3)C2=O)COC1=O | UniProt P48048 | 7.40 |
| O=C1C=C(N2CCC3(CCN(C[C@H](O)c4cnc(-n5cnnn5)nc4)CC3)C2=O)CO1 | UniProt P48048 | 7.10 |

[ask] Query pIC50 for CC1=C(N2CCC3(CCN(C[C@@H](O)c4ccc(-n5cnnn5)nn4)CC3)C2=O)COC1=O
[reply] 7.70

[ask] Query pIC50 for CO[C@H](CN1CCC2(CC1)CCN(C1=C(C)C(=O)OC1)C2=O)c1cnc(-n2cnnn2)cn1
[reply] 6.85

----------
# subject-of-test: hROMK (hKir1.1) (Homo sapiens)
# measurement-description: Thallium Flux Assay (ROMK channel functional thallium flux, FLIPR-Tetra)
# reported-conditions: HEK293 cells stably expressing hROMK (hKir1.1); 30 min compound incubation
readout: pIC50
Scale: pIC50 equals -log10([C]), with [C] in mol/L.

Please review the following examples before continuing.
| molecule | pIC50 |
| --- | --- |
| COC1CN(C2=C(C)C(=O)OC2)C(=O)C12CC1CCC(C2)N1C[C@@H](O)c1ccc(-n2cnnn2)nc1 (single isomer, unassigned) | 7.22 |
| CO[C@@H](CN1CCC2(CC1)CCN(C1=C(C)C(=O)OC1)C2=O)c1ccc(-n2cnnn2)nc1 | 7.70 |
| CC1=C(N2CCC3(CCN(C[C@H](O)c4ccc(-n5cnnn5)cc4F)CC3)C2=O)COC1=O | 8.00 |

[ask] Write pIC50 of CC1=C(N2CC(O)C3(CC4CCC(C3)N4C[C@H](O)c3ccc(-n4cnnn4)nc3)C2=O)COC1=O (single isomer, unassigned) [Example 104] ; system used: hROMK (hKir1.1) (Homo sapiens)
[reply] 6.92

[ask] Write pIC50 of CC1=C(N2CCC3(CCN(C[C@H](C)c4ccc(-n5cnnn5)nn4)CC3)C2=O)COC1=O (single isomer, unassigned) ; system used: hROMK (hKir1.1) (Homo sapiens)
[reply] 7.05

[ask] Write pIC50 of CC1=C(N2CCC3(CCN(C[C@@H](O)c4cnc(-n5cnnn5)cn4)CC3)C2=O)COC1=O ; system used: hROMK (hKir1.1) (Homo sapiens)
[reply] 7.52
